Hi there, I'd appreciate the recorded pKd for every entry that follows.
System Under Test: yE1 for yNedd8 (Ula1Uba3) (Saccharomyces cerevisiae)
Construct: made in house; host or cells: E. coli
Sequence (Q99344 1-299): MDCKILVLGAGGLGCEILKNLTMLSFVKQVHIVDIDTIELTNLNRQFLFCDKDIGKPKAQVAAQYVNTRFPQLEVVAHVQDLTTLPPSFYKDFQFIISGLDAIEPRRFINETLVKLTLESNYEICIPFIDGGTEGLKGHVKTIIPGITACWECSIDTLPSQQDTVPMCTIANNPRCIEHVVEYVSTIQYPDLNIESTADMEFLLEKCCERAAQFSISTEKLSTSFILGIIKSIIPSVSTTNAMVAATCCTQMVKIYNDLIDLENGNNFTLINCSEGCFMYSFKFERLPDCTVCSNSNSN
Sequence (Q12059 1-462 partner): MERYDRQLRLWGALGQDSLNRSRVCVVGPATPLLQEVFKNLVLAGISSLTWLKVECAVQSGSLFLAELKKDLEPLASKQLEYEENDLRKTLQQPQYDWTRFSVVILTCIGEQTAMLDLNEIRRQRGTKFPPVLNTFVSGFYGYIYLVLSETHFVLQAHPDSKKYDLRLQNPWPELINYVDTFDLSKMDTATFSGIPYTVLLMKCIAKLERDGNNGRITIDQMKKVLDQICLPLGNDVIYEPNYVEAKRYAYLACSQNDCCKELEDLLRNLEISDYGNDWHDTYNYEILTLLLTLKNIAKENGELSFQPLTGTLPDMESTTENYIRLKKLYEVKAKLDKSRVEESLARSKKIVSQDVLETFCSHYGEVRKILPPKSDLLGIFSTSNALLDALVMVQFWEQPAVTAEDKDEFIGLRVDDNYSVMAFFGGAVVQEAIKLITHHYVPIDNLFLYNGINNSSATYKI
Assay Notes: ITC binding of Ubc12 peptides to yE1
Design: species or system S. cerevisiae
Give bare numbers, as −log10 of the molar value.

# per-item lookup of pKd; items listed below
1. Ac-LKLRQLQKKKQKENENSSSIQPN-NH2 [Acetyl-yUbc12^2-24]
2. H-MLKLRQLQKKKQKENENSSSIQPN-NH2 [yUbc12^1-24]
3. Ac-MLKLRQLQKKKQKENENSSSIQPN-NH2 [yUbc12Ac1-24]

1: 5.80; 2: 7.15; 3: 7.80
